Each entry below lists one item and its recorded IC50 value.
# TARGET SYSTEM: recombinant mTOR (Homo sapiens, UniProt P42345)
# Sequence (P42345 1362-2549): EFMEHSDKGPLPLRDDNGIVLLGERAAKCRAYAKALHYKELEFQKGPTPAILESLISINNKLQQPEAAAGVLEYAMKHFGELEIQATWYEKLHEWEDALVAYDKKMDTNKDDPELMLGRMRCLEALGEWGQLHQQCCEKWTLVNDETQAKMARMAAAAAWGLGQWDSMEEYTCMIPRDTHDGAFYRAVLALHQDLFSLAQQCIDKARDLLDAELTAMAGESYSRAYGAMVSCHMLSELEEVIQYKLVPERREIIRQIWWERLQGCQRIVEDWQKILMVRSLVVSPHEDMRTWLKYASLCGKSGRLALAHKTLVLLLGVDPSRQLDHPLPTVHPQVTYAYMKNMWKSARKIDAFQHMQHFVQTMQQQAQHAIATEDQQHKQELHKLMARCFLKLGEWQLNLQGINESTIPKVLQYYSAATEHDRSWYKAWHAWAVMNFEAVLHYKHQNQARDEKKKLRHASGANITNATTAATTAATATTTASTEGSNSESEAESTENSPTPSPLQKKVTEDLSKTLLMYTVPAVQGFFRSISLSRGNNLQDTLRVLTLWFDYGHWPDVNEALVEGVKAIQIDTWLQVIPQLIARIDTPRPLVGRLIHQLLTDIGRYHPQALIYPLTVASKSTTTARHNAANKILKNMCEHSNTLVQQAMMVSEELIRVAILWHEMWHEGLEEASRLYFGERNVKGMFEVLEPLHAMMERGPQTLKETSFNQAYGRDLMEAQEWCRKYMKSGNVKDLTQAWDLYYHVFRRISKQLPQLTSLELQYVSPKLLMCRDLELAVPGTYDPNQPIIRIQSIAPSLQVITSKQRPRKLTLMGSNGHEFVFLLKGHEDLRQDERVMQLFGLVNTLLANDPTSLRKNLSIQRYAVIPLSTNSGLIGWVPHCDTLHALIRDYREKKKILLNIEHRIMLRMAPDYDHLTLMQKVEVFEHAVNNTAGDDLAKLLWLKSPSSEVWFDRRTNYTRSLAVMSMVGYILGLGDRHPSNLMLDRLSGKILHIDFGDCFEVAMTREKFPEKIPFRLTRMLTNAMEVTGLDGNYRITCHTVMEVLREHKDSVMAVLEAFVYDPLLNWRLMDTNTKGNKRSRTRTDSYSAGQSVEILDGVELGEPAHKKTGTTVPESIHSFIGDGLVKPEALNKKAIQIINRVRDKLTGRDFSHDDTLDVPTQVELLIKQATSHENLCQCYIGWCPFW
# MEASUREMENT NOTES: In vitro mTOR kinase assay (AlphaScreen), Test (a)
# Type: biochemical
# CONDITION LABEL: average value; read-out: Test (a) average IC50
Returns: string containing the number followed by the unit.

Consider the reported IC50 for these compounds:
SUBSTANCE SMILES	MEASURED RESULT
CCCS(=O)(=O)Nc1ccc(-c2nc(CS(C)(=O)=O)cc(N3CCOCC3)n2)cc1	4 µM
CS(=O)(=O)Cc1cc(N2CCOCC2)nc(-c2ccc(NS(C)(=O)=O)c(CO)c2)n1	5 µM
CS(=O)(=O)Cc1cc(N2CCOCC2)nc(-c2ccc(CNS(C)(=O)=O)cc2)n1	6.8 µM
CCCCS(=O)(=O)Nc1ccc(-c2nc(CS(C)(=O)=O)cc(N3CCOCC3)n2)cc1	6 µM
CS(=O)(=O)Cc1cc(N2CCOCC2)nc(-c2ccc(NS(=O)(=O)Cc3ccc(F)cc3)cc2)n1	7.1 µM

Q: Give IC50 for C[C@H]1COCCN1c1cc(CS(C)(=O)=O)nc(-c2ccc(NS(C)(=O)=O)cc2)n1
Ans: 1 µM

###

Each entry below lists one item and its recorded pIC50 value.
# TARGET SYSTEM: recombinant mTOR (Homo sapiens)
# MEASUREMENT NOTES: In vitro mTOR kinase assay (AlphaScreen), Test (a)
# Format: biochemical
# CONDITION LABEL: average value; read-out: Test (a) average IC50
For clarity, pIC50 is expressed as the negative log10 of concentration in mol/L.

Consider the reported pIC50 for these compounds:
SUBSTANCE SMILES	MEASURED RESULT
CS(=O)(=O)Cc1cc(N2CCOCC2)nc(-c2ccc(NS(C)(=O)=O)cc2)n1	5.59
CS(=O)(=O)Cc1cc(N2CCOCC2)nc(-c2ccc(NS(=O)(=O)C3CC3)cc2)n1	6.06
CCS(=O)(=O)Nc1ccc(-c2nc(CS(C)(=O)=O)cc(N3CCOCC3)n2)cc1	5.85

Now take the following compound into account.
Q: With recombinant mTOR (Homo sapiens) as the test system, provide measured pIC50 for this compound: C[C@H]1COCCN1c1cc(CS(C)(=O)=O)nc(-c2ccc(CNS(C)(=O)=O)cc2)n1
Ans: 5.35
